Origin of measurements: ChEMBL document CHEMBL4270642

# testTarget: Signal peptidase I (Escherichia coli K-12)
# experimentalProtocol: Inhibition of Escherichia coli type 1 signal peptidase lepB assessed as residual activity at 0.0049 uM preincubated for 10 mins followed by Dabcyl-VGGTATAYGAFSRPGLE-(EDANS)-OH substrate addition measured after 2 hrs by FRET based assay (reference value: 100%)
Form field: Activity (one value per entry).
measure: Activity (%)

{"columns": ["smilesStr", "obsValue"],
 "data": [
  ["CCCCCCC#Cc1cncc(C(=O)N[C@@H](CCCN)C(=O)N[C@H](C(=O)N[C@@H](C)C(=O)N[C@H]2Cc3cn(nn3)CCO[C@@H]3C[C@@H]4OB(O[C@@H]4C3)[C@H](C)NC2=O)[C@@H](C)O)c1", 91],
  ["C[C@@H]1NC(=O)[C@@H](NC(=O)[C@H](C)NC(=O)[C@@H](NC(=O)[C@H](CCCN)NC(=O)c2ccc(-c3ccccc3)cc2)[C@@H](C)O)Cc2cn(nn2)CCO[C@@H]2C[C@@H]3OB1O[C@@H]3C2", 84.9],
  ["CCCCCCc1ccc(-c2c[nH]c3ccc(C(=O)N[C@@H](CCCN)C(=O)N[C@H](C(=O)N[C@@H](C)C(=O)N[C@H]4Cc5cn(nn5)CCO[C@@H]5C[C@@H]6OB(O[C@@H]6C5)[C@H](C)NC4=O)[C@@H](C)O)cc23)cc1", 99.5],
  ["CCCCCCc1ccc(-c2nc3cc(C(=O)N[C@@H](CCCN)C(=O)N[C@H](C(=O)N[C@@H](C)C(=O)N[C@H]4Cc5cn(nn5)CCO[C@@H]5C[C@@H]6OB(O[C@@H]6C5)[C@H](C)NC4=O)[C@@H](C)O)ccc3[nH]2)cc1", 88.3]
]}
